The values you see were collected from paper PMC10962703.

Molecular target: UniProt P35462
Sequence (P35462 whole entry): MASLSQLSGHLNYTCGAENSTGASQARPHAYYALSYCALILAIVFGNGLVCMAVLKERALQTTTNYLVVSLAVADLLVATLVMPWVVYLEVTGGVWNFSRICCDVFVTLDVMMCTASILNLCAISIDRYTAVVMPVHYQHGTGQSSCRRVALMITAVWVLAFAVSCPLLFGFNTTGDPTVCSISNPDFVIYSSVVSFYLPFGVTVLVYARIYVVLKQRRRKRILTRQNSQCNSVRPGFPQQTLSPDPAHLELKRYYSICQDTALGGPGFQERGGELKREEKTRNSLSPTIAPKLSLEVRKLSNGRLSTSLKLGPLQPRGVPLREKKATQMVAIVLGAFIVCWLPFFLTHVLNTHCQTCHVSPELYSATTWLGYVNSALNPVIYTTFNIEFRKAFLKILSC
Assay: D3R-mediated mitogenesis
Give pEC50 for every item shown.
In textbook form, pEC50 equals minus log to base ten of the concentration in mol/L.

# lookup: pEC50 of CC(C)C[C@H]1C(=O)N2CCC[C@H]2[C@]2(O)O[C@](NC(=O)[C@@H]3C=C4c5cccc6[nH]c(Br)c(c56)C[C@H]4N(C)C3)(C(C)C)C(=O)N12 [Bromocriptine, bromocriptine]
8.47

# lookup: pEC50 of CC(C)C[C@H]1C(=O)N2CCC[C@H]2[C@]2(O)O[C@](NC(=O)[C@@H]3C=C4c5cccc6[nH]c(Br)c(c56)C[C@H]4[N+](C)(C)C3)(C(C)C)C(=O)N12.[I-] [AB01–60]
7.42

# lookup: pEC50 of CN[C@@H]1Cc2cccc3[nH]c(=O)n(c23)C1 [Sumanirole, sumanirole]
6.65
